- SYSTEM TESTED: T1, mouse TEAD4(210-427) (mouse, UniProt Q62296 210-427)
- T1 construct: mouse TEAD4, residues 210-427; The tag was cleaved with 3C protease only for the crystallisation; nothing is said for SPR and FP; also called mTEAD4; source: E. coli BL21 DE3 RIL, purified (His Trap, SEC)
- T1 sequence (Q62296 210-427): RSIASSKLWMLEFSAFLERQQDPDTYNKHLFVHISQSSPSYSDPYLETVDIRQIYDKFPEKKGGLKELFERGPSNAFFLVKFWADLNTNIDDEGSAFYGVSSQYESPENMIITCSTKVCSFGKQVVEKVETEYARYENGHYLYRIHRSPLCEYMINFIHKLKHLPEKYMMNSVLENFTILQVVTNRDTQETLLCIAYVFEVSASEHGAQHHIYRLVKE
- ASSAY: fluorescence polarisation; direct: FITC-labelled peptide (10 nM) titrated with hTEAD1 or mTEAD4; 10 mM HEPES, 150 mM NaCl, 0.1% Tween-20, pH 7.4; read after 1 h
- TEST PARAMETERS: both partners purified
Bridge positions count the residues as written; N and C are the ends. Square brackets hold non-standard residues; d marks the D form. Primed or numbered codes have the meaning given here. Ends that are not written are not given here. * marks the point of attachment. FITC = O=C1OC2(c3ccc(O)cc3Oc3cc(O)ccc32)c2ccc(NC(=S)*)cc21; PEG2′ = not defined here; Peg = not defined here
PROPERTY NAME: Kd (nM)

BINDER: GRKKRRQRRRPQ[PEG2′]SVEDHFAKALGDTWLQIKAA (not fully specified (some residues); also: FITC label, place not given here, also called 7 (FITC-Peg); source: synthetic peptide) [FITC-labelled peptide 7 (Tat-PEG2-4E)]
MEASUREMENT: 51

BINDER: {FITC-Peg}-SVEDHFAKALGDTWLQIKAA (lactam 3-18; reading uncertain, macrocyclic VGL4 two-helix motif 4E; numbers count on: mouse VGL4 as in PDB 4LN0; Rink amide resin: C-terminal amide surmised; also called 4E (FITC-Peg); source: synthetic peptide) [FITC-labelled peptide 4E]
MEASUREMENT: 32
